target: T1, recombinant human laminin-211 (human, UniProt P24043 23-3122; P07942 22-1786; P11047 34-1609); assay: ELISA; plates coated with 50 nM GF or chemokine in PBS; 10 nM laminin isoform in PBS added; bound laminin detected with anti-LAMC1 or anti-LAMA3 polyclonal antibody; A450 signals greater than 0.1 taken as binding; BSA-coated wells as control; details: both partners purified
T1 construct: laminin subunit alpha-2, human; chain told by the isoform's name; laminin subunit beta-1, human; laminin subunit gamma-1, human; source: bought: BioLamina (recombinant human, >95% purity); copies: + +
result.type: binding result

1) FGF-10 (ligand, UniProt O15520 38-208, looked up, fibroblast growth factor 10, bought in its mature form; source: bought: PeproTech; produced in Escherichia coli) QALGQDMVSPEATNSSSSSFSSPSSAGRHVRSYNHLQGDVRWRKLFSFTKYFLKIEKNGKVSGTKKENCPYSILEITSVEIGVVAVKAINSNYYLAMNKKGKLYGSKEFNNDCKLKERIEENGYNTYASFNWQHNGRQMYVALNGKGAPRRGQKTRRKNTSAHFLPMVVHS ... binds
2) BMP-3 (ligand, UniProt P12645 363-472, looked up, bone morphogenetic protein 3, bought in its mature form; source: bought: PeproTech; produced in Escherichia coli) QWIEPRNCARRYLKVDFADIGWSEWIISPKSFDAYYCSGACQFPMPKSLKPSNHATIQSIVRAVGVVPGIPEPCCVPEKMSSLSILFFDENKNVVLKVYPNMTVESCACR ... binds
3) platelet-derived growth factor PDGF-BB (ligand, human, UniProt P01127 82-190, looked up, platelet-derived growth factor subunit B, human, bought in its mature form; a homodimer by its name; source: bought: PeproTech; produced in Escherichia coli) SLGSLTIAEPAMIAECKTRTEVFEISRRLIDRTNANFLVWPPCVEVQRCSGCCNNRNVQCRPTQVQLRPVQVRKIEIVRKKPIFKKATVTLEDHLACKCETVAAARPVT ... binds
